# System: 786-O
# runDescription: In vitro 2D assay (CellTiter-Blue)
# Format: cell-based
# conditionContext: Homo sapiens, 786-0; 2D model, 96 hour treatment; read-out: Relative IC50
testReadout: IC50 (µM)
Only the number, expressed in µM, is required.

Specify reported IC50 for the compound shown: CC(C)(Oc1ccc(CCNC(=O)c2ccc(Cl)cc2)cc1)C(=O)O [Bezafibrate]
1070

###

# System: RXF 1220L
# runDescription: In vitro 3D clonogenic assay
# Type: cell-based
# conditionContext: Homo sapiens; 3D model, colony formation, 8 to 13 days continuous exposure; read-out: Relative IC50
testReadout: pIC50
Scale: pIC50 equals -log10([C]), with [C] in mol/L.

Specify reported pIC50 for the compound shown: CC(C)(Oc1ccc(CCNC(=O)c2ccc(Cl)cc2)cc1)C(=O)O [Bezafibrate]
2.91

###

# Test system: A-498
# runDescription: In vitro 2D assay (CellTiter-Blue)
# Assay type: cell-based
# conditionContext: Homo sapiens, A498; 2D model, 96 hour treatment, second run 381 to 10,240 μM; read-out: Absolute IC50
testReadout: IC50 (µM)
Only the number, expressed in µM, is required.

Specify reported IC50 for the compound shown: CC(C)(Oc1ccc(CCNC(=O)c2ccc(Cl)cc2)cc1)C(=O)O [Bezafibrate]
2120

###

# Tested on: RXF 1183L
# runDescription: In vitro 2D assay (CellTiter-Blue)
# Format: cell-based
# conditionContext: Homo sapiens; 2D model, 96 hour treatment, second run 381 to 10,240 μM; read-out: Absolute IC50
testReadout: pIC50
Scale: pIC50 equals -log10([C]), with [C] in mol/L.

Specify reported pIC50 for the compound shown: CC(C)(Oc1ccc(CCNC(=O)c2ccc(Cl)cc2)cc1)C(=O)O [Bezafibrate]
3.02

###

# Tested on: ACHN
# runDescription: In vitro 2D assay (CellTiter-Blue)
# Assay type: cell-based
# conditionContext: Homo sapiens, 2D model, 96 hour treatment, read-out: Relative IC50
# Source text: Cell lines RXF 1183L, RXF 1220L, RXF 1781L, RXF 393L and RXF 486L were established at Oncotest from the corresponding human patient-derived xenograft. The cell lines 786-O, A-498, Caki-1 and SN12C were purchased from NCI (National Cancer Institute, Bethesda, Md., USA). […] Cells were harvested from exponential phase cultures, counted and plated in 96-well flat-bottom microtiter plates at a cell density of 4,000-12,000 cells/well depending on the cell line's growth rate. […]
testReadout: pIC50
Scale: pIC50 equals -log10([C]), with [C] in mol/L.

// fetch pIC50 for CC(C)(Oc1ccc(CCNC(=O)c2ccc(Cl)cc2)cc1)C(=O)O [Bezafibrate] ; system: ACHN
2.95

###

# Test system: 786-O
# runDescription: In vitro 3D clonogenic assay
# Assay type: cell-based
# conditionContext: Homo sapiens, 786-0; 3D model, colony formation, 8 to 13 days continuous exposure; read-out: Absolute IC50
# Experimental: Cell lines were routinely passaged one or twice weekly. All cells were grown at 37° C. in a humidified atmosphere with 5% CO2 in RPMI 1640 medium (Biochrom) supplemented with 10% (v/v) fetal calf serum and 0.1 mg/mL gentamicin. The percentage of viable cells was determined in a Neubauer-hemocytometer using trypan blue exclusion. Tumor xenografts (patient-derived, as well as cell line-derived xenografts) were passaged as subcutaneous xenografts in NMRI nu/nu mice. […]
testReadout: pIC50
Scale: pIC50 equals -log10([C]), with [C] in mol/L.

Specify reported pIC50 for the molecule shown: CC(C)(Oc1ccc(CCNC(=O)c2ccc(Cl)cc2)cc1)C(=O)O [Bezafibrate]
2.87

###

# Tested on: ACHN
# runDescription: In vitro 3D clonogenic assay
# Type: cell-based
# conditionContext: Homo sapiens, 3D model, colony formation, 8 to 13 days continuous exposure, read-out: Relative IC50
testReadout: pIC50
Scale: pIC50 equals -log10([C]), with [C] in mol/L.

Specify reported pIC50 for the compound shown: CC(C)(Oc1ccc(CCNC(=O)c2ccc(Cl)cc2)cc1)C(=O)O [Bezafibrate]
2.98

###

# Test system: SN12C
# runDescription: In vitro 2D assay (CellTiter-Blue)
# Assay type: cell-based
# conditionContext: Homo sapiens, 2D model, 96 hour treatment, read-out: Relative IC50
testReadout: IC50 (µM)
Only the number, expressed in µM, is required.

Specify reported IC50 for the molecule shown: CC(C)(Oc1ccc(CCNC(=O)c2ccc(Cl)cc2)cc1)C(=O)O [Bezafibrate]
1210

###

# System: SN12C
# runDescription: In vitro 3D clonogenic assay
# Type: cell-based
# conditionContext: Homo sapiens, 3D model, colony formation, 8 to 13 days continuous exposure, read-out: Relative IC50
testReadout: IC50 (µM)
Only the number, expressed in µM, is required.

Specify reported IC50 for the molecule shown: CC(C)(Oc1ccc(CCNC(=O)c2ccc(Cl)cc2)cc1)C(=O)O [Bezafibrate]
463

###

# Tested on: RXF 486L
# runDescription: In vitro 3D clonogenic assay
# Assay type: cell-based
# conditionContext: Homo sapiens, 3D model, colony formation, 8 to 13 days continuous exposure, read-out: Absolute IC50
# Description: Cell lines were routinely passaged one or twice weekly. All cells were grown at 37° C. in a humidified atmosphere with 5% CO2 in RPMI 1640 medium (Biochrom) supplemented with 10% (v/v) fetal calf serum and 0.1 mg/mL gentamicin. The percentage of viable cells was determined in a Neubauer-hemocytometer using trypan blue exclusion. Tumor xenografts (patient-derived, as well as cell line-derived xenografts) were passaged as subcutaneous xenografts in NMRI nu/nu mice. […]
testReadout: IC50

Specify reported IC50 for the compound shown: CC(C)(Oc1ccc(CCNC(=O)c2ccc(Cl)cc2)cc1)C(=O)O [Bezafibrate]
993 µM

###

# Tested on: RXF 1183L
# runDescription: In vitro 3D clonogenic assay
# Assay type: cell-based
# conditionContext: Homo sapiens; 3D model, colony formation, 8 to 13 days continuous exposure; read-out: Relative IC50
# Method: Cell lines were routinely passaged one or twice weekly. All cells were grown at 37° C. in a humidified atmosphere with 5% CO2 in RPMI 1640 medium (Biochrom) supplemented with 10% (v/v) fetal calf serum and 0.1 mg/mL gentamicin. The percentage of viable cells was determined in a Neubauer-hemocytometer using trypan blue exclusion. Tumor xenografts (patient-derived, as well as cell line-derived xenografts) were passaged as subcutaneous xenografts in NMRI nu/nu mice. […]
testReadout: IC50 (µM)
Only the number, expressed in µM, is required.

Specify reported IC50 for the compound shown: CC(C)(Oc1ccc(CCNC(=O)c2ccc(Cl)cc2)cc1)C(=O)O [Bezafibrate]
712

###

# Tested on: Caki-1
# runDescription: In vitro 2D assay (CellTiter-Blue)
# Type: cell-based
# conditionContext: Homo sapiens, 2D model, 96 hour treatment, read-out: Relative IC50
testReadout: pIC50
Scale: pIC50 equals -log10([C]), with [C] in mol/L.

Specify reported pIC50 for the molecule shown: CC(C)(Oc1ccc(CCNC(=O)c2ccc(Cl)cc2)cc1)C(=O)O [Bezafibrate]
2.85
